protocol.description: In vitro metabolic stability, rat liver microsomes
Assay type: in vitro ADME
readout: half-life at 1 µM

Form: compound = CN(C)c1ccc(O)c(CNc2cccc3ccc(CO)nc23)c1 ; half-life at 1 µM = < 30 min

---

protocol.description: Brain uptake study
Format: in vivo, male CD1 mice
run.conditions: male, CD1, mouse, brain, oral, 10 mg/kg
readout: concentration at 5 min (ng/g)
Record the value in ng/g, omitting the unit from your answer.

Form: molecule = CN(C)c1ccc(O)c(CNc2cccc3ccc(CO)nc23)c1 ; concentration at 5 min = 14.3

---

protocol.description: UV-vis variable-pH titration
Format: physicochemical
run.conditions: Acidity constant (pKa), third of three printed, pH range 2–8
readout: pKa
Output: the number by itself.

Form: molecule = CN(C)c1ccc(O)c(CNc2cccc3ccc(CO)nc23)c1 [ML] ; pKa = 6.23

---

protocol.description: UV-vis variable-pH titration
Format: physicochemical
run.conditions: Acidity constant (pKa), first of three printed, pH range 2–8
readout: pKa
Output: the number by itself.

Form: compound = CN(C)c1ccc(O)c(CNc2cccc3ccc(CO)nc23)c1 [ML] ; pKa = 2.63

---

protocol.description: Brain uptake study
Type: in vivo, male CD1 mice
run.conditions: male, CD1, mouse, plasma, oral, 10 mg/kg
readout: concentration at 5 min (ng/mL)
Record the value in ng/mL, omitting the unit from your answer.

Form: compound = CN(C)c1ccc(O)c(CNc2cccc3ccc(CO)nc23)c1 ; concentration at 5 min = 5.91

Just for reference, paper PMC4096303 is where these values come from.
